Values from PubChem BioAssay (NCATS)

Tested on: UISO
Assay: qHTS assay to identify novel small-molecules to repurpose for Merkel cell carcinoma treatment (AID 1296009); further: nearly all actives have a fitted effect of over 60% in size
Conditions: MCC and control cell lines, CellTiter-Glo viability, 72 h; series mostly up to 46 µM
Text: MCC is a rare and aggressive neuroendocrine skin cancer with limited treatment options. Approximately 80% of MCCs have the Merkel cell polyomavirus (MCPyV) DNA integrated into the host genome (virus-positive: VP-MCC) and viral oncogenes drive oncogenesis. The remaining MCCs are virus-negative (VN-MCC) and are caused by UV mutagenesis. […] Using cell viability as a readout (CellTiter-Glo assay) we found both overlapping and distinct drugs that can be repurposed for the treatment of VP-MCC and VN-MCC. […]
Inconclusive results are not listed. Active and inactive are the calls of the source. The call rests on the fitted dose curve; in most records, active means well fitted inhibition curve with a large enough effect; inconclusive means small, poorly fitted or top-dose-only effect; inactive means flat fitted curve, though single readings scatter.
Pick from Y for active, N for inactive when you respond.

Below are worked cases with known answers.
O=C1c2cccc3c2[C@H](CCC3)CN1[C@@H]1CN2CCC1CC2; N
C#C[C@]1(O)CC[C@H]2[C@@H]3CCC4=CC(=O)CC[C@@H]4[C@H]3CC[C@@]21CC; N
OC[C@H]1O[C@@H]2O[C@H]3[C@H](O)[C@@H](O)[C@@H](O[C@H]4[C@H](O)[C@@H](O)[C@@H](O[C@H]5[C@H](O)[C@@H](O)[C@@H](O[C@H]6[C@H](O)[C@@H](O)[C@@H](O[C@H]7[C@H](O)[C@@H](O)[C@@H](O[C@H]8[C@H](O)[C@@H](O)[C@@H](O[C@H]1[C@H](O)[C@H]2O)O[C@@H]8CO)O[C@@H]7CO)O[C@@H]6CO)O[C@@H]5CO)O[C@@H]4CO)O[C@@H]3CO; N
N#C/C(=C1\SCC(c2ccccc2Cl)S1)n1ccnc1 (configuration not stated); N
C#C[C@]1(OC(C)=O)CC[C@H]2[C@@H]3CCC4=C/C(=N/O)CC[C@@H]4[C@H]3CC[C@@]21CC; Y

Which outcome was entered for the compound CCCCOC(=O)CC(CC(=O)OCCCC)(OC(C)=O)C(=O)OCCCC in this test?
N

Which outcome was entered for the compound O=C(CCCN1CC=C(n2c(=O)[nH]c3ccccc32)CC1)c1ccc(F)cc1 in this test?
Y
